- Test system: 439559-082-T-J2-PDC complex spheroid growth
- test_method_notes: Anticancer human tumor 439559-082-T-J2-PDC patient-derived colon adenocarcinoma cell line growth inhibition [Asc]
- details: second compound 0.03 µM; first compound 3.16 µM; hits give low values
measured_endpoint: viability, T/C (%)
// note: answer is a bare numeric in %

Check out these entries, answers already filled in.
- compound: "C=C(F)C(=O)N1CCN(c2nc(OCC3CCCN3C)nc3c2CCN(c2cccc4cccc(Cl)c24)C3)CC1CC#N (centres undefined) + CCN1C(C(=O)NC23CCC(C(=O)O)(CC2)CC3)C(c2cccc(Cl)c2F)C2(C(=O)Nc3cc(Cl)ccc32)C12CCCCC2"
  viability, T/C / %: 92.1
- compound: "C#Cc1c(F)ccc2cc(O)cc(-c3ncc4c(N5CC6CCC(C5)N6)nc(OCC56CCCN5CC(F)C6)nc4c3F)c12 (centres undefined) + CCN1C(C(=O)NC23CCC(C(=O)O)(CC2)CC3)C(c2cccc(Cl)c2F)C2(C(=O)Nc3cc(Cl)ccc32)C12CCCCC2"
  viability, T/C / %: 48.4
- compound: "C=CC(=O)N1CCN(c2nc(=O)n(-c3c(C)ccnc3C(C)C)c3nc(-c4c(O)cccc4F)c(F)cc23)C(C)C1 (centres undefined) + CCN1C(C(=O)NC23CCC(C(=O)O)(CC2)CC3)C(c2cccc(Cl)c2F)C2(C(=O)Nc3cc(Cl)ccc32)C12CCCCC2"
  viability, T/C / %: 107

Note: attention shifts to another entry.
Name the reported viability, T/C value associated with the compound O=C(c1cc(Cc2n[nH]c(=O)c3ccccc23)ccc1F)N1CCN(C(=O)C2CC2)CC1 + CCN1C(C(=O)NC23CCC(C(=O)O)(CC2)CC3)C(c2cccc(Cl)c2F)C2(C(=O)Nc3cc(Cl)ccc32)C12CCCCC2 97.1

* * *

- Tested on: 439559-082-T-J2-PDC complex spheroid growth
- test_method_notes: Anticancer human tumor 439559-082-T-J2-PDC cell line growth inhibition [Asc];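 further: spheroids exposed to agents for 7 days starting day 3 after seeding; percent of DMSO vehicle control viability with 100% = vehicle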
- details: second compound 0.1 µM; first compound 0.000316 µM; hits give low values
measured_endpoint: viability, T/C (%)
// note: answer is a bare numeric in %

- molecule: "NC1CCC(NC2CC2c2ccccc2)CC1 (centres undefined) + Cc1c(S(C)(=O)=O)c(-c2cc(F)cc(N3CCN(c4ccc(NS(=O)(=O)c5ccc(NC(CCN6CCC(C(=O)OCCCP(=O)(O)O)CC6)CSc6ccccc6)c(S(=O)(=O)C(F)(F)F)c5)cc4)CC3)c2)c(-c2ccc(Cl)cc2)n1C(C)C"
  viability, T/C / %: 101
- molecule: "Cn1ncnc1[C@H]1c2n[nH]c(=O)c3cc(F)cc(c23)N[C@@H]1c1ccc(F)cc1 + Cc1c(S(C)(=O)=O)c(-c2cc(F)cc(N3CCN(c4ccc(NS(=O)(=O)c5ccc(NC(CCN6CCC(C(=O)OCCCP(=O)(O)O)CC6)CSc6ccccc6)c(S(=O)(=O)C(F)(F)F)c5)cc4)CC3)c2)c(-c2ccc(Cl)cc2)n1C(C)C"
  viability, T/C / %: 102
- molecule: "Cn1ncnc1[C@H]1c2n[nH]c(=O)c3cc(F)cc(c23)N[C@@H]1c1ccc(F)cc1 + CNC(C)C(=O)NC1CN(S(=O)(=O)c2cccc(S(=O)(=O)N3CCC4CCC(C(=O)NC(c5ccccc5)c5ccccc5)N4C(=O)C(NC(=O)C(C)NC)C3)c2)CCC2CCC(C(=O)NC(c3ccccc3)c3ccccc3)N2C1=O"
  viability, T/C / %: 93.4

Note: attention shifts to another entry.
Name the reported viability, T/C value associated with the molecule NC1CCC(NC2CC2c2ccccc2)CC1 (centres undefined) + CNC(C)C(=O)NC1CN(S(=O)(=O)c2cccc(S(=O)(=O)N3CCC4CCC(C(=O)NC(c5ccccc5)c5ccccc5)N4C(=O)C(NC(=O)C(C)NC)C3)c2)CCC2CCC(C(=O)NC(c3ccccc3)c3ccccc3)N2C1=O 105

* * *

- Tested on: 439559-082-T-J2-PDC complex spheroid growth
- test_method_notes: Anticancer human tumor 439559-082-T-J2-PDC cell line growth inhibition [Asc];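 further: spheroids exposed to agents for 7 days starting day 3 after seeding; percent of DMSO vehicle control viability with 100% = vehicle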
- details: second compound 1 µM; first compound 3 µM; hits give low values
- Text: Multicellular complex tumor spheroid response to apoptosis pathway targeting inhibitors Alrizomadlin, Pelcitoclax, and Dasminapant in combination with a variety of drugs and investigational agents in selected tumor cell lines […] Compounds. […] If the clinical Cmax for an agent had not been determined, the highest concentration tested was 10 microM. […]
measured_endpoint: viability, T/C (%)
// note: answer is a bare numeric in %

Check out these entries, answers already filled in.
- compound: "Cc1nc(N2CCC3(CC2)COC(C)C3N)c(CO)nc1Sc1ccnc(N)c1Cl (centres undefined) + CNC(C)C(=O)NC1CN(S(=O)(=O)c2cccc(S(=O)(=O)N3CCC4CCC(C(=O)NC(c5ccccc5)c5ccccc5)N4C(=O)C(NC(=O)C(C)NC)C3)c2)CCC2CCC(C(=O)NC(c3ccccc3)c3ccccc3)N2C1=O"
  target_or_test_system: "439559-082-T-J2-PDC complex spheroid growth"
  unit_of_measure: "%"
  measured: 45
- compound: "CCN1C(C(=O)NC23CCC(C(=O)O)(CC2)CC3)C(c2cccc(Cl)c2F)C2(C(=O)Nc3cc(Cl)ccc32)C12CCCCC2 (centres undefined) + Cc1c(S(C)(=O)=O)c(-c2cc(F)cc(N3CCN(c4ccc(NS(=O)(=O)c5ccc(NC(CCN6CCC(C(=O)OCCCP(=O)(O)O)CC6)CSc6ccccc6)c(S(=O)(=O)C(F)(F)F)c5)cc4)CC3)c2)c(-c2ccc(Cl)cc2)n1C(C)C"
  target_or_test_system: "439559-082-T-J2-PDC complex spheroid growth"
  unit_of_measure: "%"
  measured: 79.3
- compound: "Cc1nc(N2CCC3(CC2)COC(C)C3N)c(CO)nc1Sc1ccnc(N)c1Cl (centres undefined) + Cc1c(S(C)(=O)=O)c(-c2cc(F)cc(N3CCN(c4ccc(NS(=O)(=O)c5ccc(NC(CCN6CCC(C(=O)OCCCP(=O)(O)O)CC6)CSc6ccccc6)c(S(=O)(=O)C(F)(F)F)c5)cc4)CC3)c2)c(-c2ccc(Cl)cc2)n1C(C)C"
  target_or_test_system: "439559-082-T-J2-PDC complex spheroid growth"
  unit_of_measure: "%"
  measured: 70.4

Note: attention shifts to another entry.
Name the reported viability, T/C value associated with the compound CCN1C(C(=O)NC23CCC(C(=O)O)(CC2)CC3)C(c2cccc(Cl)c2F)C2(C(=O)Nc3cc(Cl)ccc32)C12CCCCC2 (centres undefined) + CNC(C)C(=O)NC1CN(S(=O)(=O)c2cccc(S(=O)(=O)N3CCC4CCC(C(=O)NC(c5ccccc5)c5ccccc5)N4C(=O)C(NC(=O)C(C)NC)C3)c2)CCC2CCC(C(=O)NC(c3ccccc3)c3ccccc3)N2C1=O 79.5

* * *

- Test system: 439559-082-T-J2-PDC complex spheroid growth
- test_method_notes: Anticancer human tumor 439559-082-T-J2-PDC cell line growth inhibition [Asc];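 further: spheroids exposed to agents for 7 days starting day 3 after seeding; percent of DMSO vehicle control viability with 100% = vehicle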
- details: second compound 10 µM; first compound 0.0316 µM; hits give low values
Catalogue of viability, T/C values
// note: answer is a bare numeric in %

Check out these entries, answers already filled in.
- molecule: "NC1CCC(NC2CC2c2ccccc2)CC1 (centres undefined) + Cc1c(S(C)(=O)=O)c(-c2cc(F)cc(N3CCN(c4ccc(NS(=O)(=O)c5ccc(NC(CCN6CCC(C(=O)OCCCP(=O)(O)O)CC6)CSc6ccccc6)c(S(=O)(=O)C(F)(F)F)c5)cc4)CC3)c2)c(-c2ccc(Cl)cc2)n1C(C)C"
  unit_of_measure: "%"
  viability, T/C: 85.1
- molecule: "Cn1ncnc1[C@H]1c2n[nH]c(=O)c3cc(F)cc(c23)N[C@@H]1c1ccc(F)cc1 + Cc1c(S(C)(=O)=O)c(-c2cc(F)cc(N3CCN(c4ccc(NS(=O)(=O)c5ccc(NC(CCN6CCC(C(=O)OCCCP(=O)(O)O)CC6)CSc6ccccc6)c(S(=O)(=O)C(F)(F)F)c5)cc4)CC3)c2)c(-c2ccc(Cl)cc2)n1C(C)C"
  unit_of_measure: "%"
  viability, T/C: 70.8
- molecule: "C=CC(=O)N1CCN(c2nc(=O)n(-c3c(C)ccnc3C(C)C)c3nc(-c4c(O)cccc4F)c(F)cc23)C(C)C1 (centres undefined) + Cc1c(S(C)(=O)=O)c(-c2cc(F)cc(N3CCN(c4ccc(NS(=O)(=O)c5ccc(NC(CCN6CCC(C(=O)OCCCP(=O)(O)O)CC6)CSc6ccccc6)c(S(=O)(=O)C(F)(F)F)c5)cc4)CC3)c2)c(-c2ccc(Cl)cc2)n1C(C)C"
  unit_of_measure: "%"
  viability, T/C: 78

Note: attention shifts to another entry.
Name the reported viability, T/C value associated with the molecule O=C(c1cc(Cc2n[nH]c(=O)c3ccccc23)ccc1F)N1CCN(C(=O)C2CC2)CC1 + Cc1c(S(C)(=O)=O)c(-c2cc(F)cc(N3CCN(c4ccc(NS(=O)(=O)c5ccc(NC(CCN6CCC(C(=O)OCCCP(=O)(O)O)CC6)CSc6ccccc6)c(S(=O)(=O)C(F)(F)F)c5)cc4)CC3)c2)c(-c2ccc(Cl)cc2)n1C(C)C 71.6

Data credit: PubChem BioAssay AID1963423
